src = PubChem BioAssay (NCI)

System: NCI-H226 lung
EXPERIMENT NOTES: NCI tumour cell line growth inhibition, 48 h
ENDPOINT LABEL: TGI

Below: 6 molecules and their reported TGI.
CC(C)(C)n1c(=O)[nH]n(C2NN=Cc3cccc4cccc2c34)c1=O (centres undefined) = > 100 µM
N#Cc1c2c(c(Nc3cccc(C(F)(F)F)c3)n3c1nc1ccccc13)CCC2 = > 100 µM
COc1ccc2c(c1)=C(C=C1C=CN(O)C=C1)C(=O)N=2 = 97.5 µM
CCN1C=C/C(=C\C=C/c2cc[n+](CC)c3ccccc23)c2ccccc21 = 16 µM
CCCc1cc(O)c2c3c(c(=O)oc2c1)CN(C)CC3 = > 100 µM
CN(Cc1ccc(Cl)cc1)c1ccc(CO)c(Cl)c1 = 0.285 µM

Item under review: N#CC(c1ccnc(Cl)n1)c1nc2ccccc2s1 (centres undefined) . Reported TGI?
> 47.4 µM

Item under review: Cn1cc(C2=C(c3cccc(N)c3)C(=O)NC2=O)c2ccccc21 . Reported TGI?
> 25 µM

Item under review: COc1ccc2nc3cc(Cl)ccc3c(NCCC[N+](C)(C)CCCCCCCCCCCCCCCC[N+](C)(C)CCCNc3c4ccc(Cl)cc4nc4ccc(OC)cc34)c2c1 . Reported TGI?
> 100 µM

---

System: SF-539 CNS
EXPERIMENT NOTES: NCI tumour cell line growth inhibition, 48 h
Entries and their TGI

Below: 3 compounds and their reported TGI.
O=[N+]([O-])c1ccccc1N=Nc1c(O)[nH]c2ccc(Br)cc12 = > 100 µM
COc1cc2c3c(n(CCCN(CCN)CCCn4c5c(c6cc(OC)c(OC)cc6c4=O)C(=O)c4cc6c(cc4-5)OCO6)c(=O)c2cc1OC)-c1cc2c(cc1C3=O)OCO2 = 0.731 µM
COP(=O)(Cc1ccc(/C=C/C#N)o1)OC = > 100 µM

Next item in the queue.
Item under review: Cc1nc2ccc(Cl)cc2c2c1CCS2 . Reported TGI?
> 100 µM

---

Tested on: CCRF-CEM leukemia
EXPERIMENT NOTES: NCI tumour cell line growth inhibition, 48 h
Entries and their TGI

Below: 8 compounds and their reported TGI.
CSc1nc(NC2OCC(OC(C)=O)C(OC(C)=O)C2OC(C)=O)c(N=C(C)C(C)=O)c(=O)[nH]1 (stereo not given) = > 100 µM
Cn1ccnc1C(=O)/C=C/c1ccc(C(=O)Nc2ccc(S(F)(F)(F)(F)F)cc2)cc1 = > 14.3 µM
N#CC(c1nc2ccccc2s1)c1ncnc(Cl)c1[N+](=O)[O-] (stereo not given) = > 100 µM
COP(=O)(Cc1ccc(/C=C/C#N)o1)OC = > 100 µM
CC1OC(n2ccc(=O)[nH]c2=O)C=C(OC(=O)c2ccccc2)C1=O (stereo not given) = > 100 µM
O=C1CCCC2C(O)CCC[C@H]12 (stereo not given in full) = > 100 µM
CCOc1ccccc1NC(=O)c1cc2ccccc2cc1O = 32.9 µM
O=c1[nH]cnc2c1sc1nc3ccccc3n12 = > 100 µM

Item under review: CC(=O)NNc1nc(C)c(C(/C=C/c2ccc([N+](=O)[O-])cc2)=N/N)s1 . Reported TGI?
> 100 µM

Item under review: CCOC(=O)c1c(-c2ccccc2)oc(-c2ccccc2)c1C(=O)OCC . Reported TGI?
> 100 µM
